target: recombinant human PD-L1 (Sino Biological Inc.) (human, UniProt Q9NZQ7 19-239); assay: SPR, Biacore X100
Sequence (Q9NZQ7 19-239 limits assumed): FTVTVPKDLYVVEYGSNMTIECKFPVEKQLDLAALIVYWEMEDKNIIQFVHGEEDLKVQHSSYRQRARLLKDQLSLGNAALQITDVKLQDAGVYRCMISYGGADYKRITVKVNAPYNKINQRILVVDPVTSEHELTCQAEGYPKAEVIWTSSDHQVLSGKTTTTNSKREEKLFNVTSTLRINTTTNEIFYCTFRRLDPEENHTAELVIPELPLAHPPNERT
readout.type: kon (M⁻¹ s⁻¹)

humanized anti-human PD-L1 monoclonal antibody VLS15-VHS12 P1 (antibody, human IgG1, kappa, V domains shown) VH: EVQLVQSGAEVKKPGSSVKVSCKASGFNIEDTYIHWVRQAPGQGLEWMGRIDPAQGNTKYDPKFQGRVTITADTSTNTAYMELSSLRSEDTAVYYCGRGLGAWFAYWGQGTLVTVSS VL: DIQMTQSPSSLSASVGDRVTITCKASQDVHTAVAWIQQKPGKSPKLLIYSASNRYTGVPSRFSGSGSGTDFTFTISSLQPEDIATYYCQQHYITPLTFGQGTKLEIKR: 326000
humanized anti-human PD-L1 monoclonal antibody VLS10-VHS7 P3 (antibody, human IgG1, kappa, V domains shown) VH: QVQLVQSGAEVKKPGSSVKVSCTASGFNIEDTYIHWVRQAPGQGLEWMGRIDPANANTKYDPKFQGRVTITADTSTNTAYMELSSLRSEDTAVYYCGRGLGAWFAYWGQGTLVTVSS VL: DIQMTQSPSSLSASVGDRVTITCKASQDVHTAVAWIHQKPGKAPKLLIYSASNRYTGVPSRFSGSGSGTDFTFTISSLQPEDIATYYCQQHYITPLTFGQGTKLEIKR: 255000
humanized anti-human PD-L1 monoclonal antibody VLS15-VHS12 P2 (antibody, human IgG1, kappa, V domains shown) VH: EVQLVQSGAEVKKPGSSVKVSCKASGFNIEDTYIHWVRQAPGQGLEWMGRIDPASGNTKYDPKFQGRVTITADTSTNTAYMELSSLRSEDTAVYYCGRGLGAWFAYWGQGTLVTVSS VL: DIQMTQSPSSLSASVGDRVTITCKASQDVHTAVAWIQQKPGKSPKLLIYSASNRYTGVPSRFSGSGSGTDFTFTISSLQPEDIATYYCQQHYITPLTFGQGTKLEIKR: 372000
